- assay.protocol: Volume of distribution in rat at 2.5 mg/kg, iv
- Assay type: ADME, organism-based
- condition.description: in vivo
readout: Vd (L/kg)
Could you give me the number in L/kg? Just the number is fine.

get_value(item= Cc1cc2ccnc(Nc3ccc(Oc4ccnc(N)c4I)c(F)c3)c2c(=O)n1-c1ccc(F)cc1 , readout=Vd) returns 2.9

Entry Nc1nccc(Oc2ccc(Nc3nccc4ccn(-c5ccc(F)cc5)c(=O)c34)cc2F)c1Cl — recorded Vd = 3.6

Form: compound = Cc1cc2ccnc(Nc3ccc(Oc4ccnc(N)c4Cl)c(F)c3)c2c(=O)n1-c1ccc(F)cc1 ; Vd = 2.4

---

- measurement.target: UniProt:P35968
- Sequence (P35968 whole entry): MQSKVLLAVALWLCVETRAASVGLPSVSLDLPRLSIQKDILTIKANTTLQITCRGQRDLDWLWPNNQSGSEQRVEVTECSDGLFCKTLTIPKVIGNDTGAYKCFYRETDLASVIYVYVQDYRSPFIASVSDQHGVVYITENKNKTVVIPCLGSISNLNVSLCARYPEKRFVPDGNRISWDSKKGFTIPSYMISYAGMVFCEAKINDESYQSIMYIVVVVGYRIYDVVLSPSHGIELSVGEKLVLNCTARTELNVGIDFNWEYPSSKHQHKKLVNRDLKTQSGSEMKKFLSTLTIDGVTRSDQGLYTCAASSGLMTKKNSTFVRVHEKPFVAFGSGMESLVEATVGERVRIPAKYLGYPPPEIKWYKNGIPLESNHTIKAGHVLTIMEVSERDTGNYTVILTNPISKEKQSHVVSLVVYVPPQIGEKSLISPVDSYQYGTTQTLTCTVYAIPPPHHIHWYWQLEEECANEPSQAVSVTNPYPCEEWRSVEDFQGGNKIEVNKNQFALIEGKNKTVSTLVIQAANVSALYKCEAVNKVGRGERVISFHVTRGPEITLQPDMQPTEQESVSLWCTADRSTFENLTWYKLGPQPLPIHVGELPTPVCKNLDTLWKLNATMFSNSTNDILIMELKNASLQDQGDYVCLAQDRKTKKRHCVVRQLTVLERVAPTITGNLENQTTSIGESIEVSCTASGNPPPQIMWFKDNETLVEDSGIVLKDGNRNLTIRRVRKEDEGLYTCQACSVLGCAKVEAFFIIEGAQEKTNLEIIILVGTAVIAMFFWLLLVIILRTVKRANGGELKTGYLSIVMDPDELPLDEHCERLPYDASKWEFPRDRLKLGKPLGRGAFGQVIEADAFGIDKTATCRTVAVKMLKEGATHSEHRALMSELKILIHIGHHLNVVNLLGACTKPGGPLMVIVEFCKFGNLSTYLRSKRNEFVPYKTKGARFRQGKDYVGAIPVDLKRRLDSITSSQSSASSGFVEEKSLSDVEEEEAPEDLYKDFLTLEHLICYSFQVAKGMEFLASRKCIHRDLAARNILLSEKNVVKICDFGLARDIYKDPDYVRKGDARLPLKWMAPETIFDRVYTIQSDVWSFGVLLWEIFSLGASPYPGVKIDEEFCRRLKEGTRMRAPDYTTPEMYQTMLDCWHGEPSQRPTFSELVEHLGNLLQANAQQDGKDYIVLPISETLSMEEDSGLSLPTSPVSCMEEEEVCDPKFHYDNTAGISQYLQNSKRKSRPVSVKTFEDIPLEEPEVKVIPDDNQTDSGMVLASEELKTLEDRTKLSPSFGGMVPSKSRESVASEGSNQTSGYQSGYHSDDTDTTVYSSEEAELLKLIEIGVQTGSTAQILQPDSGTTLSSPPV
readout: pIC50
The quantity pIC50 is defined as the negative base-10 logarithm of the molar concentration.

Observed pIC50 on UniProt:P35968, entry CCOc1ccn(-c2ccc(F)cc2)c(=O)c1C(=O)Nc1ccc(Oc2ccnc(N)c2Cl)c(F)c1 [BMS-777607] , equals 6.86
